Below, each of the molecules is paired with its reported pIC50 value.
- TEST_TARGET: Substance-P receptor (Homo sapiens)
- Sequence (P25103 whole entry): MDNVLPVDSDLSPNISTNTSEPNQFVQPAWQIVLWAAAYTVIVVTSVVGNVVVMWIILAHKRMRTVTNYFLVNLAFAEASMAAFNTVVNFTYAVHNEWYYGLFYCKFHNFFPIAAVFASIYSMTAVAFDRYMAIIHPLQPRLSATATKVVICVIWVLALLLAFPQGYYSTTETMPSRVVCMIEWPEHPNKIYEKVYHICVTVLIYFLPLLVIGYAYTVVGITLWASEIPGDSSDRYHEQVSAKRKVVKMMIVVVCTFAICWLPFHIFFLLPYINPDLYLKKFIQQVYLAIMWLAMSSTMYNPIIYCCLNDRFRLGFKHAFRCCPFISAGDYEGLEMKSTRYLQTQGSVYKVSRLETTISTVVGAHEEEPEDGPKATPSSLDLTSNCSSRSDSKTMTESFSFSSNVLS
- METHOD_SUMMARY: Binding affinity was measured against the Tachykinin receptor 1 in human IM-9 cells using [125I]Bolton-Hunter SP.
- Assay type: cell-based
// pIC50 is dimensionless: -log10 of concentration (M)

Field: example entries. Status: answers known.
> print(dat)
                                   molecule  measurement.type  data.value
1  c1ccc(CN[C@H]2C3C4CCCC3CN(C4)[C@H]2C(c2ccccc2)c2ccccc2)cc1             pIC50        6.64
2  COc1ccccc1CN[C@H]1C2CC3CCCC2CN3[C@H]1C(c1ccccc1)c1ccccc1 (some centres undefined)             pIC50        8.72
3  COc1ccccc1CN[C@H]1C2CC3CCC(C2)N3[C@H]1C(c1ccccc1)c1ccccc1             pIC50        9.04

Okay, now this molecule:
Query block: Answer with the recorded pIC50 for the molecule listed here: "c1ccc(CN[C@H]2C3CC4CCCC(C3)N4[C@H]2C(c2ccccc2)c2ccccc2)cc1"
Result block: 6.77
